Where do these numbers come from? They come from PubChem BioAssay (NCI).

- System: SR leukemia
- assay summary: NCI tumour cell line growth inhibition, 48 h
Examples of molecules with documented TGI follow.

molecule	TGI
COc1cc(/C=C/C(=N\NS(=O)(=O)c2ccc(C)cc2)c2sc(NNC(C)=O)nc2C)ccc1O	> 100 µM
CNS(=O)(=O)NNS(=O)(=O)c1ccc2ccccc2c1	> 100 µM
COC(=O)C1CCC(=O)N1C(c1ccccc1)c1ccc(OC)c(OC)c1 (stereo unspecified)	> 100 µM
COC1CCC(N2C(=O)CNc3ncc(-c4ccc(C(C)(C)O)nc4)nc32)CC1 (stereo unspecified)	> 47.2 µM
O=C([O-])CC(=O)[O-].O=C([O-])CC(=O)[O-].[K+].[Pd+2]	> 100 µM
N#CC(c1ccc(Cl)cc1)c1cccc(C(C#N)c2ccc(Cl)cc2)n1 (stereo unspecified)	> 100 µM
COC(CN1C(=O)c2cccc3cccc(c23)C1=O)OC	> 100 µM
Cc1ccc(C(=O)/C(=C/c2ccc([N+](=O)[O-])cc2)SCc2ccc(Cl)cc2)cc1	> 100 µM
CC1C=C(CCCCCCCCCCCC[C@@H](O)[C@@H]2CC[C@@H]([C@@H]3CC[C@@H](C(O)CCCCCCCCCCCCC4=C[C@H](C)OC4=O)O3)O2)C(=O)O1 (stereo partly specified)	> 55 µM
NC(Cc1c[nH]c2c(O)cccc12)C(=O)O (stereo unspecified)	> 100 µM
Cc1cc(N(CCC#N)CCC#N)ccc1/C(N=Nc1ccc(Cl)cc1)=N\NC(=O)c1ccccc1	> 100 µM
